Test system: HCC-2998 colon
Test Method Notes: NCI tumour cell line growth inhibition, 48 h; in the data active = GI50 below about 0.43 µM; inactive = the rest
Outcomes: true (active), false (inactive)

| Compound | Subject Of Test | Label Class |
| --- | --- | --- |
| COc1cc(CSc2nc3ccc(C)cc3c(=O)n2Cc2ccccc2)cc(OC)c1OC | HCC-2998 colon | false |
| COCCOC(=O)C1=C(C)NC2=C(C(=O)CC(c3ccccc3OC)C2)C1c1cccc(O)c1 (configuration not stated) | HCC-2998 colon | false |
| CC(=O)OC1COC(S[As](C)C)C(OC(C)=O)C1OC(C)=O (configuration not stated) | HCC-2998 colon | true |
| O=C1OCC(C#Cc2ccccc2)=C1Cl | HCC-2998 colon | false |
| COc1ccc(-c2n[nH]nc2-c2csc3ccccc23)cc1OC | HCC-2998 colon | false |
| COC(=O)CCC(=O)c1c(C)[nH]c(/C=C2\N=C(c3ccc[nH]3)C=C2OC)c1C | HCC-2998 colon | false |
| CC(C)(C)c1ccc([I+]c2ccc(C(C)(C)C)cc2)cc1 | HCC-2998 colon | false |
| CC(C)=CCc1c(O)cc(/C=C/c2cc(O)c3c(c2)C[C@@H]2C(C)(C)[C@H](O)[C@H](O)C[C@@]2(C)O3)cc1O | HCC-2998 colon | false |
| CN1C(=O)CNC(=O)[C@H](NC(=O)c2nc3ccccc3cc2O)CSSC[C@H]1C(=O)NCCc1nc2ccccc2cc1O | HCC-2998 colon | false |
| O=C1/C(=C/c2ccccc2Cl)N=C(c2ccccc2)N1Cc1ccco1 | HCC-2998 colon | false |
| Brc1ccc([I+]c2ccc(Br)cc2)cc1 | HCC-2998 colon | false |
| C=CC1CC12C(=O)C1OC2(C)C2C(=O)c3c(ccc4c3ccc3ccccc34)C(=O)C12 (configuration not stated) | HCC-2998 colon | false |
